# TARGET: Neuromedin-K receptor (Homo sapiens)
# EXPERIMENT NOTES: Displacement of ([125I]His3-MePhe7)-NKB from NK3 receptor (unknown origin) expressed in CHO cells by scintillation counter
Square brackets hold non-standard residues; d marks the D form. Peptide text beside a SMILES is read from it. * marks the point of attachment. NMeF = CN[C@@H](Cc1ccccc1)C(=O)O; CONHOH = O=C(NO)*
REPORTED PROPERTY: pIC50
Give bare numbers, as −log10 of the molar value.

{"COMPOUND": "CSCC[C@H](NC(=O)[C@H](CC(C)C)NC(=O)CNC(=O)[C@H](Cc1ccccc1)N(C)C(=O)[C@H](Cc1ccccc1)NC(=O)[C@H](CC(=O)O)NC(=O)NO)C(N)=O ({CONHOH}-DF[NMeF]GLM-NH2)", "pIC50": 8.00}
{"COMPOUND": "CSCC[C@H](NC(=O)[C@H](CC(C)C)NC(=O)CNC(=O)[C@H](Cc1ccccc1)N(C)C(=O)[C@H](Cc1ccccc1)NC(=O)[C@H](CC(=O)O)NC(=O)[C@@H](N)CC(=O)O)C(N)=O (H-DDF[NMeF]GLM-NH2)", "pIC50": 6.76}

Now examine the next entry.
Note to self: pIC50 recorded for CSCC[C@H](NC(=O)[C@H](CC(C)C)NC(=O)CNC(=O)[C@H](Cc1ccccc1)N(C)C(=O)[C@H](Cc1ccccc1)NC(=O)[C@H](CCC(=O)O)NC(=O)CCC(=O)O)C(N)=O was 8.21

* * *

Give measured IC50 for each item. Keep answers brief.
# TARGET: Neuromedin-K receptor (Homo sapiens)
# Sequence (P29371 whole entry): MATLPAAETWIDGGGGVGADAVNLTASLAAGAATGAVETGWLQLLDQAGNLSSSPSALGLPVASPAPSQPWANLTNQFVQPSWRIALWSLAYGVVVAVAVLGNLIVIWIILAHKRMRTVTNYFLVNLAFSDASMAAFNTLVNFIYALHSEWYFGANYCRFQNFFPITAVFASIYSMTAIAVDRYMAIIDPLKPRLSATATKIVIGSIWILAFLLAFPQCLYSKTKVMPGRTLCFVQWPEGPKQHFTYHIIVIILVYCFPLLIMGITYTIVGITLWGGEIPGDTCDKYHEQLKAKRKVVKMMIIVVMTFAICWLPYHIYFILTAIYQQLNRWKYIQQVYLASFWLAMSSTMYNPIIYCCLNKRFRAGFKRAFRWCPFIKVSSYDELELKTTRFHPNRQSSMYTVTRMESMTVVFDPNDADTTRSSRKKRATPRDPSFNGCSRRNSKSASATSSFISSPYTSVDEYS
# EXPERIMENT NOTES: Displacement of ([125I]His3-MePhe7)-NKB from NK3 receptor (unknown origin) expressed in CHO cells by scintillation counter
Numbered stars: 1 amine (or outer) side, 2 acyl side, 3 side chain; on linkers, the order of the positions; unused ones are H or OH. Square brackets hold non-standard residues; d marks the D form. Peptide text beside a SMILES is read from it. * marks the point of attachment. X1 = NC(=O)N[C@@H](CC(=O)O)C(=O)*; NMeF = CN[C@@H](Cc1ccccc1)C(=O)O; Aad = N[C@@H](CCCC(=O)O)C(=O)O; Suc = O=C(CCC(=O)[*:2])[*:1]
Give bare numbers, in nM.

Previously resolved entries follow.
{"COMPOUND": "CSCC[C@H](NC(=O)[C@H](CC(C)C)NC(=O)CNC(=O)[C@H](Cc1ccccc1)N(C)C(=O)[C@H](Cc1ccccc1)NC(=O)[C@H](CCC(=O)O)NC(=O)[C@H](CC(=O)O)NC(C)=O)C(N)=O", "IC50, nM": 7.7}
{"COMPOUND": "CSCC[C@H](NC(=O)[C@H](CC(C)C)NC(=O)CNC(=O)[C@H](Cc1ccccc1)N(C)C(=O)[C@H](Cc1ccccc1)NC(=O)[C@H](CC(=O)O)NC(=O)[C@@H](CC(=O)O)NC(C)=O)C(N)=O", "IC50, nM": 73}
{"COMPOUND": "CSCC[C@H](NC(=O)[C@H](CC(C)C)NC(=O)CNC(=O)[C@H](Cc1ccccc1)N(C)C(=O)[C@H](Cc1ccccc1)NC(=O)[C@H](CC(=O)O)NC(N)=O)C(N)=O (X1-F[NMeF]GLM-NH2)", "IC50, nM": 39}
{"COMPOUND": "CSCC[C@H](NC(=O)[C@H](CC(C)C)NC(=O)CNC(=O)[C@H](Cc1ccccc1)N(C)C(=O)[C@H](Cc1ccccc1)NC(=O)[C@@H](CCC(=O)O)NC(=O)[C@@H](CC(=O)O)NC(C)=O)C(N)=O", "IC50, nM": 68}

Now consider a different compound.
So, CSCC[C@H](NC(=O)[C@H](CC(C)C)NC(=O)CNC(=O)[C@H](Cc1ccccc1)N(C)C(=O)[C@H](Cc1ccccc1)NC(=O)[C@H](CCCC(=O)O)NC(=O)CCC(=O)O)C(N)=O (Suc-[Aad]F[NMeF]GLM-NH2) ? Its IC50 was 9.9

* * *

# TARGET: Neuromedin-K receptor (Homo sapiens, UniProt P29371)
# EXPERIMENT NOTES: Agonist activity at human NK3 receptor expressed in CHO cells assessed as calcium influx relative to 100 nM senktide
# Format: functional, cell-based
Please go through the items and note down their EC50.
Record the result as number plus unit.

Completed entries (count: 2):
{"CPD SMILES": "CSCC[C@H](NC(=O)[C@H](CC(C)C)NC(=O)CNC(=O)[C@H](Cc1ccccc1)N(C)C(=O)[C@H](Cc1ccccc1)NC(=O)[C@H](CCC(=O)O)NC(=O)CCC(=O)O)C(N)=O", "EC50": "0.03 nM"}
{"CPD SMILES": "CSCC[C@H](NC(=O)[C@H](CC(C)C)NC(=O)CNC(=O)[C@H](Cc1ccccc1)N(C)C(=O)[C@H](Cc1ccccc1)NC(=O)[C@H](CCC(=O)O)NC(=O)C(=O)O)C(N)=O", "EC50": "0.0091 nM"}

Noted for CSCC[C@H](NC(=O)[C@H](CC(C)C)NC(=O)CNC(=O)[C@H](Cc1ccccc1)N(C)C(=O)[C@H](Cc1ccccc1)NC(=O)[C@H](CC(=O)O)NC(=O)[C@H](CC(=O)O)NC(C)=O)C(N)=O : its EC50 reads 0.031 nM

* * *

# TARGET: Neuromedin-K receptor (Homo sapiens)
# EXPERIMENT NOTES: Agonist activity at human NK3 receptor expressed in CHO cells assessed as calcium influx relative to 100 nM senktide
Numbered stars: 1 amine (or outer) side, 2 acyl side, 3 side chain; on linkers, the order of the positions; unused ones are H or OH. Square brackets hold non-standard residues; d marks the D form. Peptide text beside a SMILES is read from it. NMeW = CN[C@@H](Cc1c[nH]c2ccccc12)C(=O)O; NMeF = CN[C@@H](Cc1ccccc1)C(=O)O; NMeI = CC[C@H](C)[C@H](NC)C(=O)O; Aad = N[C@@H](CCCC(=O)O)C(=O)O; Suc = O=C(CCC(=O)[*:2])[*:1]
Record form. Attribute: EC50. Fill in for each entry.
Answers are plain numbers, in nM.

Worked examples, 4 compounds total:
{"COMPOUND": "CSCC[C@H](NC(=O)[C@H](CC(C)C)NC(=O)CNC(=O)[C@H](Cc1c[nH]c2ccccc12)N(C)C(=O)[C@H](Cc1ccccc1)NC(=O)[C@H](CC(=O)O)NC(=O)CCC(=O)O)C(N)=O (Suc-DF[NMeW]GLM-NH2)", "OUTPUT UNIT": "nM", "EC50": 0.033}
{"COMPOUND": "CC[C@H](C)[C@@H](C(=O)NCC(=O)N[C@@H](CC(C)C)C(=O)N[C@@H](CCSC)C(N)=O)N(C)C(=O)[C@H](Cc1ccccc1)NC(=O)[C@H](CC(=O)O)NC(=O)CCC(=O)O (Suc-DF[NMeI]GLM-NH2)", "OUTPUT UNIT": "nM", "EC50": 0.05}
{"COMPOUND": "CSCC[C@H](NC(=O)[C@H](CC(C)C)NC(=O)CNC(=O)[C@H](Cc1ccccc1)N(C)C(=O)[C@H](Cc1ccccc1)NC(=O)[C@@H](CC(=O)O)NC(=O)C(=O)O)C(N)=O", "OUTPUT UNIT": "nM", "EC50": 0.022}
{"COMPOUND": "CSCC[C@H](NC(=O)[C@H](CC(C)C)NC(=O)CNC(=O)[C@H](Cc1ccccc1)N(C)C(=O)[C@H](Cc1ccccc1)NC(=O)[C@H](CCCC(=O)O)NC(=O)CCC(=O)O)C(N)=O (Suc-[Aad]F[NMeF]GLM-NH2)", "OUTPUT UNIT": "nM", "EC50": 0.019}

For the next question, use this compound.
Note to self: EC50 recorded for CSCC[C@H](NC(=O)[C@H](CC(C)C)NC(=O)CNC(=O)[C@H](Cc1ccccc1)N(C)C(=O)[C@H](Cc1ccccc1)NC(=O)[C@@H](CCC(=O)O)NC(=O)CCC(=O)O)C(N)=O was 0.084
